Target: UniProt Q8VGQ3
Sequence (whole entry): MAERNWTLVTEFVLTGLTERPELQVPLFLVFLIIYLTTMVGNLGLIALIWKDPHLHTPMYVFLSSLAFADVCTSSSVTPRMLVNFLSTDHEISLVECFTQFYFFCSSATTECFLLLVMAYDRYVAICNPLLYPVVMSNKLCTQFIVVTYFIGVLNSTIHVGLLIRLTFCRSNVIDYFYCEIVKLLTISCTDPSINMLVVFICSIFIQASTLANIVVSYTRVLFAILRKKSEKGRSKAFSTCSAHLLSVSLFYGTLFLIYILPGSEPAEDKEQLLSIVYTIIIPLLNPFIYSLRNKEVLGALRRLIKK
Settings: stereoisomer not certain
Hi there, use one of these labels in your reply, thanks! YES = active, NO = inactive

Reference set, count: 3
>  <compound>
CC(=O)OCc1ccccc1

>  <assigned.class>
NO

$$$$
>  <compound>
CCCCOC(=O)C(C)OC(=O)CCC (stereo not given)

>  <assigned.class>
NO

$$$$
>  <compound>
CCCCCC(=O)CC

>  <assigned.class>
NO

$$$$

**Q:** # fetch the recorded call for CCCCCO here
**A:** NO

**Q:** Fill in: this test's call for CCCCC(=O)O is ___
**A:** NO

**Q:** Can you look up the reported call for CC(C)=CCCC(C)CCO (stereo not given) for me?
**A:** NO

**Q:** Field: outcome | Entry: CCC(=O)O
**A:** NO

**Q:** Record lookup: outcome of this test for CC(C)=CCCC(C)=CCO ?
**A:** NO

**Q:** Assay result, entry CCCCCCCCS — outcome?
**A:** NO

Sourced from the M2OR odorant receptor database
